Read-out: Collagen I, COL1A1 (gene 1277)
Test: BSK_MyoF_CollagenI: BioMAP Diversity Plus: MyoF Assay for Collagen I Biomarker Activity (AID 2284238)
Conditions: primary human lung fibroblasts
Active and inactive are the calls of the source. How the source made its calls: active means hit-call score of the fitted dose curve at least 0.9, where 1 is the maximum; inactive means score below 0.9.
Respond only with the outcome that fits, drawn from 1 for active, 0 for inactive

For O=c1oc2ccccc2c(O)c1C(CC(O)c1ccc(-c2ccc(Br)cc2)cc1)c1ccccc1 (stereo unspecified) , what call appears in the results of this test?
1

For `Cc1ccccc1OP(=O)(Oc1ccccc1C)Oc1ccccc1C` , what call appears in the results of this test?
1

For CC(C=O)Cc1ccc2c(c1)OCO2 (stereo unspecified) , what call appears in the results of this test?
0

For `O=[N+]([O-])c1cccc2ccccc12` , what call appears in the results of this test?
0

For `O=C1C=CC(=O)c2ccccc21` , what call appears in the results of this test?
1

For `Nc1c(Oc2ccccc2)cc(O)c2c1C(=O)c1ccccc1C2=O` , what call appears in the results of this test?
0

For Cc1cc(Cl)ccc1OC(C)C(=O)O (stereo unspecified) , what call appears in the results of this test?
0

For `Oc1c(Br)cc(Br)cc1Br` , what call appears in the results of this test?
1

For `[Cl][Sn]([c]1ccccc1)([c]1ccccc1)[c]1ccccc1` , what call appears in the results of this test?
1

For `CCOC(=O)CCN(SN(C)C(=O)Oc1cccc2c1OC(C)(C)C2)C(C)C` , what call appears in the results of this test?
0

For `O=C(O)COc1cc(Cl)c(Cl)cc1Cl` , what call appears in the results of this test?
0

For `Cc1cc(Cl)ccc1N` , what call appears in the results of this test?
0

For `O=S(=O)(c1ccc(Cl)cc1)c1cc(Cl)c(Cl)cc1Cl` , what call appears in the results of this test?
0

For OC(Cc1ccccc1Cl)(Cn1cncn1)C1(Cl)CC1 (stereo unspecified) , what call appears in the results of this test?
0

For `Nc1ccc(N)cc1` , what call appears in the results of this test?
0

For `Cc1c([N+](=O)[O-])c(C)c([N+](=O)[O-])c(C(C)(C)C)c1[N+](=O)[O-]` , what call appears in the results of this test?
1

For `CCOP(=S)(OCC)SCS(=O)(=O)C(C)(C)C` , what call appears in the results of this test?
0

For `NC(=O)CCl` , what call appears in the results of this test?
0

For `Cc1ccc(OP(=O)(Oc2ccc(C)cc2C)Oc2ccc(C)cc2C)c(C)c1` , what call appears in the results of this test?
0

For N#CCCC(Br)(C#N)CBr (stereo unspecified) , what call appears in the results of this test?
1

For `CCCCCCCCCCCCN(C)C` , what call appears in the results of this test?
0
